Data origin, for the record: ChEMBL document CHEMBL1156912

target: Oxytocin receptor (Homo sapiens, UniProt P30559); assay: Displacement of [3H]AVP from human oxytocin receptor expressed in CHO cells; type: cell-based; details: read-out: Ki
pKi: −log10 of the molar value.
outcome-measure: pKi

Cc1cc(C(=O)N2Cc3cnn(C)c3Nc3ccccc32)ccc1CNC(=O)N1CCC[C@H]1C(=S)N1CCCN(C)CC1; 6.83
O=C(Nc1ccc(C(=O)N2CCCCc3ccccc32)cc1)c1ccccc1-c1ccccc1; 6.96

* * *

Molecular target: Oxytocin receptor (Homo sapiens) (UniProt P30559)
Sequence (whole entry): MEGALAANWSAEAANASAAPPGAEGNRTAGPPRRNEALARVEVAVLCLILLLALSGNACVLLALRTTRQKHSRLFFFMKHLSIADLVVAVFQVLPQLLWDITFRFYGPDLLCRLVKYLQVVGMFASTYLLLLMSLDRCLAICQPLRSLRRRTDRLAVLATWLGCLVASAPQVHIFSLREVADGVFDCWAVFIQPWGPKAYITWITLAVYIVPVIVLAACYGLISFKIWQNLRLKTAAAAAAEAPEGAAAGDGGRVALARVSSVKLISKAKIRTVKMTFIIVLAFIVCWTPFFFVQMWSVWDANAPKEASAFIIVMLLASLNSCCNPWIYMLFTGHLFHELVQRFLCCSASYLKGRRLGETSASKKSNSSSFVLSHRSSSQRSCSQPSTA
Assay: Activity at human oxytocin receptor expressed in CHO cells assessed as inhibition of agonist-induced inositol phosphate accumulation
Type: functional, cell-based
outcome-measure: Kinact (nM)

Worked cases, answers included:
Cc1cc(C(=O)N2Cc3cnn(C)c3Nc3ccccc32)ccc1NC(=O)c1ccccc1-c1ccccc1; 557
Cc1cc(C(=O)N2CCC(N3C(=O)OCc4ccccc43)CC2)ccc1CNC(=O)N1CCC[C@H]1C(=S)N1CCCN(C)CC1; 383

A = Cc1ccn(-c2ccc(C(=O)N3Cc4cnn(C)c4Nc4ccccc43)c(Cl)c2)n1
B = O=C(Nc1ccc(C(=O)N2CCCCc3ccccc32)cc1)c1ccccc1-c1ccccc1
C = Cc1ccn(-c2ccc(C(=O)N3Cc4cccn4Cc4ccccc43)c(Cl)c2)n1
D = Cc1ccn(-c2ccc(C(=O)N3Cc4cnn(C)c4Nc4ccccc43)cc2C)n1
Task field, ranking: reported Kinact, descending order. Give the labels in the order specified.
C, B, A, D
